# assayed system: dAsCas12a S542R (Acidaminococcus sp., UniProt U2UMQ6 1-1307, S542R;D908A;E993A;D1235A)
# test description: Spec-seq (native PAGE EMSA with sequencing of bound and unbound); 25 mM Tris-HCl pH 7.4, 150 mM KCl, 5 mM MgCl2, 10% glycerol, 1 mM DTT, 40 ng/uL salmon sperm DNA; 400 nM Cas12a, 480 nM crRNA, 50 nM library, 37 C 1 h; native PAGE at room temperature; high values mean tight binding;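 further: relative affinity from the bound to unbound sequence frequency ratio in Spec-seq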
# condition info: protein: recombinant

# binder, binding signal
measured = [
    ("GTAT (dsDNA) DNA 1: GCTATCTAGTGCTCAGTACGCACTGGTATAGGAAACTTCTGGCAGGACCAGGTCATGAGATCGGAAGAGCACACGTCTGAACTCCAGTCA DNA 2: TGACTGGAGTTCAGACGTGTGCTCTTCCGATCTCATGACCTGGTCCTGCCAGAAGTTTCCTATACCAGTGCGTACTGAGCACTAGATAGC RNA: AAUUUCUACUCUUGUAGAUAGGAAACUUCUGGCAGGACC", "-8.41 lnKA"),
    ("CTCG (dsDNA) DNA 1: GCTATCTAGTGCTCAGTACGCACTGCTCGAGGAAACTTCTGGCAGGACCAGGTCATGAGATCGGAAGAGCACACGTCTGAACTCCAGTCA DNA 2: TGACTGGAGTTCAGACGTGTGCTCTTCCGATCTCATGACCTGGTCCTGCCAGAAGTTTCCTCGAGCAGTGCGTACTGAGCACTAGATAGC RNA: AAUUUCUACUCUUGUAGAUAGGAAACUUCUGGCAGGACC", "-6.92 lnKA"),
    ("GGAG (dsDNA) DNA 1: GCTATCTAGTGCTCAGTACGCACTGGGAGAGGAAACTTCTGGCAGGACCAGGTCATGAGATCGGAAGAGCACACGTCTGAACTCCAGTCA DNA 2: TGACTGGAGTTCAGACGTGTGCTCTTCCGATCTCATGACCTGGTCCTGCCAGAAGTTTCCTCTCCCAGTGCGTACTGAGCACTAGATAGC RNA: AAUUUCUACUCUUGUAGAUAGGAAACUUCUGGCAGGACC", "-8.39 lnKA"),
    ("GTTC (dsDNA) DNA 1: GCTATCTAGTGCTCAGTACGCACTGGTTCAGGAAACTTCTGGCAGGACCAGGTCATGAGATCGGAAGAGCACACGTCTGAACTCCAGTCA DNA 2: TGACTGGAGTTCAGACGTGTGCTCTTCCGATCTCATGACCTGGTCCTGCCAGAAGTTTCCTGAACCAGTGCGTACTGAGCACTAGATAGC RNA: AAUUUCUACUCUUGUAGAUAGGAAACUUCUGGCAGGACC", "-4.83 lnKA"),
    ("CGCG (dsDNA) DNA 1: GCTATCTAGTGCTCAGTACGCACTGCGCGAGGAAACTTCTGGCAGGACCAGGTCATGAGATCGGAAGAGCACACGTCTGAACTCCAGTCA DNA 2: TGACTGGAGTTCAGACGTGTGCTCTTCCGATCTCATGACCTGGTCCTGCCAGAAGTTTCCTCGCGCAGTGCGTACTGAGCACTAGATAGC RNA: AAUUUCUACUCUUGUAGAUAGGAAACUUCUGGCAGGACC", "-8.29 lnKA"),
]

Ref: paper PMC8222333
